Test system: eosinophils
experimental.details: Eosinophil shape change assay with human plasma
Format: cell-based
reported.conditions: Homo sapiens, Eosinophil, human plasma (50%), PGD2 100 nM activation, antagonistic activity
Hi there, I'd appreciate the recorded IC50 for every entry that follows.
Numbers only here, please. The scale is µM.

Query :: Supply reported IC50 belonging to this compound: CCCCOC(=O)N1CCc2c(F)ccc(-c3cc(CC(=O)O)ccc3OCC)c2C1 [Example 376]
Result :: 0.059

Query :: Supply reported IC50 belonging to this compound: COc1ccc(CC(=O)O)cc1-c1ccc(F)c2c1CN(C(=O)[C@@H]1C[C@H]1c1cccc(F)c1)CC2 [Example 65]
Result :: 0.01

Query :: Supply reported IC50 belonging to this compound: CCOc1cc(CC(=O)O)ccc1-c1ccc(F)c2c1CN(C(=O)CC1OCCc3ccccc31)CC2 (racemic) [Example 229]
Result :: 0.015

Query :: Supply reported IC50 belonging to this compound: CCOc1ccc(CC(=O)O)cc1-c1ccc(F)c2c1CN(C(=O)CC1(c3ccccc3)CC1)CC2 [Example 222]
Result :: 0.021
